molecular target: UniProt:Q16236; assay: Activation of Nrf2 (unknown origin) expressed in human HepG2 cells after 5 hrs by ARE-driven luciferase reporter gene assay
Sequence (Q16236 whole entry): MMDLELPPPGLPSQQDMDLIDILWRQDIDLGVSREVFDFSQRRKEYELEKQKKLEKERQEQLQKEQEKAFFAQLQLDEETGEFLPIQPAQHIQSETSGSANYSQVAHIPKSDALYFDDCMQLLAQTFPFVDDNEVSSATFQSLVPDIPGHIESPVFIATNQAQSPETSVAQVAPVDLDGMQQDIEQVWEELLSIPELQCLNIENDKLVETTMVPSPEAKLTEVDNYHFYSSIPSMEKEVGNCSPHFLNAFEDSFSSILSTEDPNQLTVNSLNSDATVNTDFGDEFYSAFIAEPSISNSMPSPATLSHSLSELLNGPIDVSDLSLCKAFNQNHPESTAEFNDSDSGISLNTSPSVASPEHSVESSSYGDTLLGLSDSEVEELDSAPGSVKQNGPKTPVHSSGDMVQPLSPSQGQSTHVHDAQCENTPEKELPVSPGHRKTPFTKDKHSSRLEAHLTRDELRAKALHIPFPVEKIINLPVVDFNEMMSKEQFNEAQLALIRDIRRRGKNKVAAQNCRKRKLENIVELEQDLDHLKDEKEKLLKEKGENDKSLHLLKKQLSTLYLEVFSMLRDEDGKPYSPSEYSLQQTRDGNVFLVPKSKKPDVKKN
pEC50: −log10 of the molar value.
Quantity: pEC50

Some solved entries appear below for comparison.
Molecule: Cc1ccc(/C=C/c2ccc(F)cc2F)cc1
Quantity: pEC50
Number: 5.70

Molecule: Fc1ccc(/C=C/c2ccc(F)cc2F)cc1
Quantity: pEC50
Number: 6.05

Molecule: COc1cccc(/C=C/c2ccc(C)cc2)c1OC
Quantity: pEC50
Number: 5.96

Molecule: COc1cccc(/C=C/c2ccccc2)c1OC
Quantity: pEC50
Number: 5.33

Molecule: COc1ccc(OC)c(/C=C/c2ccc(F)cc2)c1
Quantity: pEC50
Number: 5.29

A = Cc1ccc(/C=C/c2ccc(F)cc2)cc1
B = Cc1ccc(/C=C/c2ccc(F)c(F)c2)cc1
I'd appreciate it if you could identify which of A and B has the greater pEC50. Lab note: record the label of whichever item you select.
A
(A: 5.89, B: 5.59)

P = Cc1ccc(/C=C/c2cccc(C(F)(F)F)c2)cc1
Q = Fc1ccc(/C=C/c2cc(F)ccc2F)cc1
I'd appreciate it if you could identify which of P and Q has the greater pEC50. Mark your selection by writing its label.
P
(P: 5.82, Q: 5.54)

P = Fc1ccccc1/C=C/c1c(F)cccc1F
Q = Cc1ccc(/C=C/c2cccc([N+](=O)[O-])c2)cc1
Sorting ascending by pEC50, which comes first: P or Q ? Give the label under which the chosen entry appears.
Q

a = Oc1ccc(/C=C/c2ccccc2F)cc1
b = Cc1ccc(/C=C/c2ccccc2F)cc1
Which gives the smaller pEC50 number: a or b ? Identify your selection by its label.
a
(a: 4.94, b: 5.85)
